- System: DOPS (PS) negatively charged vesicles
- Assay method text: Serial dilution vesicle fluorescence intensity experiments, PS vesicles
- Type: binding
- Parameters: unit not given here
- Applied conditions: 5% PS vesicles, 5 μM vesicles; sensor 25 μM (PSVue™380 1 μM); 50 mM HEPES, 5% DMSO, pH 7.5
Readout type: ΔΔFI
Reply with the value as a number alone.

Record smiles	ΔΔFI
c1cc2ccc3ccc(CCCCN4CCCNCCNCCCNCC4)c4ccc(c1)c2c34	2.2
c1ccc(CN(CCCCc2ccc3ccc4cccc5ccc2c3c45)Cc2ccccn2)nc1	1.6
c1cc2ccc3ccc(CCCCN4CCNCCNCCNCC4)c4ccc(c1)c2c34	1.6
c1ccc(CN(Cc2ccccn2)Cc2ccc3ccc4cccc5ccc2c3c45)nc1	1.4
c1cc2ccc3ccc(CN4CCCNCCNCCCNCC4)c4ccc(c1)c2c34	1.8

We now examine a further molecule.
Lab note: molecule `c1cc2ccc3ccc(CN4CCNCCNCCNCC4)c4ccc(c1)c2c34` tested on DOPS (PS) negatively charged vesicles; recorded ΔΔFI was 1.3
